TGT: T1, mouse ROR1 expressed on the cell surface (CHO-mouse ROR1) (mouse, UniProt Q9Z139 30-937)
T1 construct: whole, on cells; Temporarily transfected CHO cells
EXPERIMENTAL DETAILS: flow cytometry on CHO cells transiently overexpressing mouse ROR1, FITC anti-human Fc detection, MFI ratio to 2nd Ab

BINDER	binding result
A2F3 anti-ROR1 IgG antibody (antibody, V domains shown) VH: EVQLLESGGGLVQPGGSLRLSCAASGFTFSSYDMSWVRQAPGKGLEWVSWISPGGGSKYYADSVKGRFTISRDNSKNTLYLQMNSLRAEDTAVYYCARVNGRFDYWGQGTLVTVSS VL: QSVLTQPPSASGTPGQRVTISCSGSSSNIGNNNVSWYQQLPGTAPKLLIYADSHRPSGVPDRFSGSKSGTSASLAISGLRSEDEADYYCATWDYSLSGYVFGGGTKLTVLG	binds
D2B12 anti-ROR1 IgG antibody (antibody, V domains shown) VH: EVQLLESGGGLVQPGGSLRLSCAASGFTFSNYDMSWVRQAPGKGLEWVSSISPSSGSSIYYADSVKGRFTISRDNSKNTLYLQMNSLRAEDTAVYYCAKAPGWCQAPSCYYDNAMDVWGQGTLVTVSS VL: QSVLTQPPSASGTPGQRVTISCSGSSSNIGNNDVSWYQQLPGTAPKLLIYDDSQRPSGVPDRFSGSKSGTSASLAISGLRSEDEADYYCGAWDDSLSGYVFGGGTKLTVLG	binds
A2F2 anti-ROR1 IgG antibody (antibody, V domains shown) VH: EVQLLESGGGLVQPGGSLRLSCAASGFTFSDYYMSWVRQAPGKGLEWVSSISPDGSNTYYADSVKGRFTISRDNSKNTLYLQMNSLRAEDTAVYYCAKNLRAFDYWGQGTLVTVSS VL: QSVLTQPPPASGTPGQRVTISCSGSSSNIGSNTVYWYQQLPGTAPKLLIYANSQRPSGVPDRFSGSKSGTSASLAISGLRSEDEADYYCGSWDYSLSGYVFGGGTKLTVLG	binds
C2E3 anti-ROR1 IgG antibody (antibody, V domains shown) VH: EVQLLESGGGLVQPGGSLRLSCAASGFTFSNYAMSWVRQAPGKGLEWVSSISHNSGSTYYADSVKGRFTISRDNSKNTLYLQMNSLRAEDTAVYYCAKFISARKSLGRSYSNGMDVWGQGTLVTVSS VL: QSVLTQPPSASGTPGQRVTISCTGSSSNIGSNDVTWYQQLPGTAPKLLIYADSKRPSGVPDRFSGSKSGTSASLAISGLRSEDEADYYCGTWDYSLSGYVFGGGTKLTVLG	binds
